src = PubChem BioAssay (NCI)

# Test system: HCT-116 colon
# method.description: NCI-60 one-dose screen, 48 h
# assay.setup: 10 µM unless noted
This is part of a sample that, as a whole, favours compounds with a hit. Of some 83,000 tested, about 20% had one in any assay. Activity calls are given as the source filed them. Rule for the calls: active = growth percent below 10; inactive = the rest.
Classes used: active, inactive

molecule: Cc1ccc(Nc2ncnc3c2sc2ncccc23)cc1
group.label: inactive

molecule: COc1cc2nc(SCc3cc(OC)c(OC)c(OC)c3)n(Cc3ccccc3)c(=O)c2cc1OC
group.label: inactive

molecule: OC1CC2c3ccccc3C1c1ccccc12 (stereo not given)
group.label: inactive

molecule: COc1ccc(N=C2NN=C(c3ccc(F)cc3)CS2)cc1OC
group.label: inactive

molecule: CCN(C(=O)c1cc2ccccc2[nH]1)[C@H]1CCC[C@@H](NCc2ccc(OC)cc2)C1
group.label: inactive

molecule: CCCCCc1c(C)[nH]c(/C=c2\[nH]/c(=C3/C=c4ccccc4=N3)cc2OC)c1C
group.label: active

molecule: Cc1cc(C(=O)O)c(N)c(C)n1
group.label: inactive

molecule: CCCCCCOc1ccc(C2(Cl)c3ccccc3N(C)c3ccccc32)cc1
group.label: inactive

molecule: CC(C)C[C@H](NC(=O)Cn1ccc(NCc2ccccc2)cc1=O)B(O)O
group.label: active

molecule: COC1=CC(c2ccc[nH]2)=N/C1=C\c1[nH]c(C)c(C(=O)CCCCC(=O)Oc2ccc3c(c2)CCC2C3CC[C@]3(C)[C@@H](O)CC[C@@H]23)c1C (stereo not given in full)
group.label: inactive

molecule: COc1cc(OC)c(C(=O)/C=C/c2ccc(C#N)cc2)c(OC)c1
group.label: inactive

molecule: C[N+](C)(C)c1ccc(CC2c3ccccc3-c3ccccc32)cc1
group.label: inactive

molecule: Clc1nc(-c2cccnc2)nc2sc3c(c12)CCCCCC3
group.label: inactive

molecule: COc1ncc(-c2ccc3ncnc(Nc4cccc(Cl)c4)c3c2)cc1NS(=O)(=O)CCN1CCOCC1
group.label: inactive

molecule: C#CCC1(c2ccc(F)c(F)c2)NS(=O)(=O)c2ccccc21 (stereo not given)
group.label: inactive

molecule: Nc1c(C(=O)Nc2cccc(C(F)(F)F)c2)sc2nc3c(cc12)CCCCC3
group.label: active

molecule: COC(=O)[C@H]1[C@H](OC)[C@@H](OC(=O)/C=C/c2ccncc2)CC2CN3CCc4c([nH]c5cc(OC)ccc45)[C@@H]3C[C@@H]21 (stereo not given in full)
group.label: inactive

molecule: O=C(CN1CCN(c2cc3c(cc2F)c(=O)c(C(=O)O)cn3C2CC2)CC1)Nc1ccc(C(=O)/C=C/c2ccccc2)cc1
group.label: active

molecule: NC(=O)c1ccc2c(c1)OCO2
group.label: inactive

molecule: COc1cc(NC(=O)c2cc3ccccc3nc2Nc2ccc(F)cc2)cc(OC)c1OC
group.label: inactive
